These data points were gathered from the Bradley open melting point set (2014).

melting point by entry:
measured.metric: melting point

molecule: CC(=O)CCC(C)=O [acetonylacetone]
measured.metric: melting point
measurement: -6 °C

molecule: Nc1ccc(-c2ccc(N)cc2)cc1 [Biphenyl-4,4'-diamine]
measured.metric: melting point
measurement: 128 °C

molecule: Oc1ccc(Cl)c(Cl)c1 [3,4-dichlorophenol]
measured.metric: melting point
measurement: 66 °C

---

Some compounds, each annotated with its measured melting point.
measured.metric: melting point (°C)

substance.smiles: CC(=O)c1ccc(-c2ccccc2)cc1
measurement.unit: °C
measurement: 122
//
substance.smiles: Cc1ccc(C2(O)CCN(CCCC(=O)c3ccc(F)cc3)CC2)cc1
measurement.unit: °C
measurement: 118
//
substance.smiles: CCOC(=O)C1(c2ccccc2)CCN(CCc2ccc(N)cc2)CC1
measurement.unit: °C
measurement: 83

---

measured.metric: melting point (°C)

compound: COc1cc(C(=O)O)cc(O)c1OC [5-hydroxy-3,4-dimethoxybenzoic acid]
measurement: 196

compound: NCC(=O)O
measurement: 240

compound: S=C=Nc1ccc(Cl)c(Cl)c1Cl [2,3,4-trichlorophenyl isothiocyanate]
measurement: 70

compound: Cc1ccc2cc([N+](=O)[O-])ccc2n1
measurement: 164

compound: Fc1nc(Cl)c2nc[nH]c2n1
measurement: 152

compound: CC(C)[C@@H](NC(=O)OC(C)(C)C)C(=O)O
measurement: 78

compound: C[C@]12CC[C@H]3[C@@H](CCC4=CC(=O)CC[C@@]43C)[C@@H]1CC[C@@H]2C(=O)CO
measurement: 142

compound: Cn1cnc(C(=O)O)c1
measurement: 242

compound: COc1cccc(C(CC(=O)O)NC(=O)OC(C)(C)C)c1 (centres undefined)
measurement: 82

compound: CCCCCCCCCCC#CC#CCCCCCCCCC(=O)O
measurement: 57

compound: CC
measurement: -183

compound: N#Cc1cccc([N+](=O)[O-])c1
measurement: 117

compound: COc1ccc(C=CC(=O)c2ccc(O)cc2)cc1 [2-Propen-1-one, 1-(4-hydroxyphenyl)-3-(4-methoxyphenyl)-]
measurement: 188

compound: COc1ccc(C#N)c(Cl)c1OC
measurement: 102

---

compound: O=Cc1ccc(N2CCCC2)cc1
melting point (°C): 84

compound: CCC(C(=O)NC(=O)NC(C)=O)c1ccccc1 (centres undefined) [acetylpheneturide]
melting point (°C): 100

compound: CC(=O)OCCOC(C)=O [ethylene_glycol_diacetate]
melting point (°C): -41

compound: CO[C@H]1C=CO[C@@]2(C)Oc3c(C)c(O)c4c(O)c(c(/C=N/N5CCN(C)CC5)c(O)c4c3C2=O)NC(=O)C(C)=CC=C[C@H](C)[C@H](O)[C@@H](C)[C@H](O)[C@H](C)[C@H](OC(C)=O)[C@@H]1C
melting point (°C): 183

compound: COc1ccc(C2=CCC3(C)C(CCC4C3CCC3(C)C(OC(C)=O)CCC43)C2)cc1 (centres undefined) [3-(4-methoxyphenyl)androst-2-en-17-yl acetate]
melting point (°C): 179

compound: COC(=O)c1ccncc1 [methyl isonicotinate]
melting point (°C): 8

compound: OB(O)c1cc(Cl)ccc1Cl
melting point (°C): 213

compound: CCCC(C)(COC(N)=O)COC(=O)NC(C)C (centres undefined)
melting point (°C): 92

compound: CC1=CCC2C3CCC4CC(=O)CCC4(C)C3CCC12C (centres undefined)
melting point (°C): 141

compound: Nc1cccc(Cl)c1
melting point (°C): -10

compound: C(=C\c1cccc(/C=C/c2ccccc2)c1)/c1ccccc1 [1,3-bis[(E)-2-phenylethenyl]benzene]
melting point (°C): 150

compound: CC=C(/C)CCC [3-methyl-trans-2-hexene]
melting point (°C): -129

compound: Nn1c(S)nnc1-c1ccc(Cl)cc1
melting point (°C): 322

compound: c1ccc2c(c1)ccc1c3ccccc3ccc21
melting point (°C): 255

compound: OCC(F)(F)F
melting point (°C): -43.5

compound: COc1ccc(-c2csc(/C(C#N)=C/c3ccc(Cl)cc3Cl)n2)cc1
melting point (°C): 143

compound: CC(=O)O/C(=C\C=C(\OC(C)=O)c1ccccc1)c1ccccc1 [(1E,3Z)-4-(acetyloxy)-1,4-diphenylbuta-1,3-dien-1-yl acetate]
melting point (°C): 126

compound: CNc1ccc([N+](=O)[O-])cc1
melting point (°C): 153

compound: Cc1nc2ccccc2o1
melting point (°C): 3

compound: O=Cc1ccccc1C(=O)O
melting point (°C): 99

compound: OC(O)C(Cl)(Cl)Cl [chloral hydrate]
melting point (°C): 57

compound: N#CC(=CNNc1ccccc1)c1ccccc1 [2-phenyl-3-(2-phenylhydrazino)prop-2-enenitrile]
melting point (°C): 156

compound: C=CC=O [acrolein]
melting point (°C): -87

compound: O=C(O)CCC(=O)c1cccs1
melting point (°C): 119

compound: c1ccc(Cn2ccnc2)cc1
melting point (°C): 71

compound: ClC1=C(Cl)C2(Cl)C3C4OC4C(Cl)C3C1(Cl)C2(Cl)Cl (centres undefined) [Heptachlor epoxide]
melting point (°C): 160

compound: N#Cc1ccc(C(c2ccc(C#N)cc2)n2cncn2)cc1 [Letrozole]
melting point (°C): 184

compound: CN1C(=O)OC(C)(C)C1=O
melting point (°C): 47

compound: CC(C)(C)OC(=O)N[C@H](COCc1ccccc1)C(=O)O
melting point (°C): 62
